From: patent US4914197A

- Tested on: rabbits eye
- EXPERIMENT NOTES: Topical antiinflammatory effect, anterior chamber paracentesis inflammation model of the rabbits eye
- Assay type: in vivo, female white rabbits
- ASSAY SETUP: inhibition of increase in protein of secondary aqueous humor vs control; 0.1% ophthalmic solution
REPORTED PROPERTY: % Inhibition

The examples below pair each entry with its known result.
COMPOUND	TARGET OR SYSTEM	% Inhibition
C[C@@H]1C[C@H]2[C@@H]3CCC4=CC(=O)C=C[C@]4(C)[C@@]3(F)[C@@H](O)C[C@]2(C)[C@@]1(O)C(=O)CO [DEX, Dexamethasone, reference compound]	rabbits eye	18.4%
Cc1cc(OP(=O)(O)OC2=C(O)[C@@H]([C@@H](O)CO)OC2=O)cc2c1O[C@](C)(CCC[C@H](C)CCC[C@H](C)CCCC(C)C)CC2 [δ-EPC]	rabbits eye	40.0%
Cc1cc(OP(=O)(O)OC2=C(O)[C@@H]([C@@H](O)CO)OC2=O)c(C)c2c1OC(C)(CCCC(C)CCCC(C)CCCC(C)C)CC2 (mixture of isomers) [β-EPC]	rabbits eye	37.3%

Problem: // returns reported % Inhibition for input Cc1c(OP(=O)(O)OC2=C(O)[C@@H]([C@@H](O)CO)OC2=O)cc2c(c1C)OC(C)(CCCC(C)CCCC(C)CCCC(C)C)CC2 (mixture of isomers) [γ-EPC]
Solution: 36.5%
